The reported numbers originate from paper PMC12748989.

MDA-MB-231 cells: recorded Average (percentage cell inhibition), Dmastoparan MDA-MB231 12.5uM for assorted molecules
Include the unit right after the number.

Task: Give Average (percentage cell inhibition), Dmastoparan MDA-MB231 12.5uM for the following molecule: CC[C@H](C)[C@H](N)C(=O)N[C@@H](CC(N)=O)C(=O)N[C@@H](CC(C)C)C(=O)N[C@@H](CCCCN)C(=O)N[C@@H](C)C(=O)N[C@@H](CC(C)C)C(=O)N[C@@H](C)C(=O)N[C@@H](C)C(=O)N[C@@H](CC(C)C)C(=O)N[C@@H](C)C(=O)N[C@@H](CCCCN)C(=O)N[C@@H](CCCCN)C(=O)N[C@@H](C)C(=O)N[C@@H](CC(C)C)C(N)=O [A13]
Result: 24.196%

Task: Report Average (percentage cell inhibition), Dmastoparan MDA-MB231 12.5uM for CC[C@H](C)[C@H](N)C(=O)N[C@@H](CC(N)=O)C(=O)N[C@@H](CC(C)C)C(=O)N[C@@H](CCCCN)C(=O)N[C@@H](C)C(=O)N[C@@H](CC(C)C)C(=O)N[C@@H](C)C(=O)N[C@@H](C)C(=O)N[C@@H](CC(C)C)C(=O)N[C@@H](C)C(=O)N[C@@H](CCCCN)C(=O)N[C@@H](CCCCN)C(=O)N[C@H](C(=O)N[C@H](C(N)=O)[C@@H](C)O)[C@@H](C)CC [T14]
Result: 36.2451%

* * *

Reported Average (percentage cell inhibition), Mastoparan PBMC by item:
- Tested on: PBMC
- reported conditions: 12.5 µM
Include the unit right after the number.

Worked set:
compound | obs value
CC[C@H](C)[C@H](N)C(=O)N[C@@H](CC(N)=O)C(=O)N[C@@H](CC(C)C)C(=O)N[C@@H](CCCCN)C(=O)N[C@@H](C)C(=O)N[C@@H](CC(C)C)C(=O)N[C@@H](CC(C)C)C(=O)N[C@@H](C)C(=O)N[C@@H](CC(C)C)C(=O)N[C@@H](C)C(=O)N[C@@H](CCCCN)C(=O)N[C@@H](CCCCN)C(=O)N[C@H](C(=O)N[C@@H](CC(C)C)C(N)=O)[C@@H](C)CC | 35.4322%
CC[C@H](C)[C@H](N)C(=O)N[C@@H](CC(N)=O)C(=O)N[C@@H](CC(C)C)C(=O)N[C@@H](CCCCN)C(=O)N[C@@H](C)C(=O)N[C@@H](CC(C)C)C(=O)N[C@@H](C)C(=O)N[C@@H](C)C(=O)N[C@@H](CC(C)C)C(=O)N[C@@H](C)C(=O)N[C@@H](Cc1c[nH]c2ccccc12)C(=O)N[C@@H](CCCCN)C(=O)N[C@H](C(=O)N[C@@H](CC(C)C)C(N)=O)[C@@H](C)CC | 64.4734%
CC[C@H](C)[C@H](N)C(=O)N[C@@H](CC(N)=O)C(=O)N[C@@H](CC(C)C)C(=O)N[C@@H](CCCCN)C(=O)N[C@@H](C)C(=O)N[C@@H](CC(C)C)C(=O)N[C@@H](C)C(=O)N[C@@H](CCC(=O)O)C(=O)N[C@@H](CC(C)C)C(=O)N[C@@H](C)C(=O)N[C@@H](CCCCN)C(=O)N[C@@H](CCCCN)C(=O)N[C@H](C(=O)N[C@@H](CC(C)C)C(N)=O)[C@@H](C)CC | 13.1597%

Task: Find Average (percentage cell inhibition), Mastoparan PBMC for CC[C@H](C)[C@H](NC(=O)[C@H](CCCCN)NC(=O)[C@H](CCCCN)NC(=O)[C@H](C)NC(=O)[C@H](CC(C)C)NC(=O)[C@H](C)NC(=O)[C@H](C)NC(=O)[C@H](CC(C)C)NC(=O)[C@H](C)NC(=O)[C@H](CCCCN)NC(=O)[C@H](CC(C)C)NC(=O)[C@H](CC(N)=O)NC(=O)[C@@H]1CCCN1)C(=O)N[C@@H](CC(C)C)C(N)=O [P1] on PBMC and write it down.
Result: -0.6303%

Task: Jot down Average (percentage cell inhibition), Mastoparan PBMC (PBMC) of CC[C@H](C)[C@H](N)C(=O)N[C@@H](CC(N)=O)C(=O)N[C@@H](CC(C)C)C(=O)N[C@@H](CCCCN)C(=O)N[C@@H](C)C(=O)N[C@@H](CC(C)C)C(=O)N[C@@H](C)C(=O)N[C@@H](C)C(=O)N[C@@H](CC(C)C)C(=O)N[C@@H](C)C(=O)N[C@@H](CC(C)C)C(=O)N[C@@H](CCCCN)C(=O)N[C@H](C(=O)N[C@@H](CC(C)C)C(N)=O)[C@@H](C)CC .
Result: 23.4198%

Task: Output reported Average (percentage cell inhibition), Mastoparan PBMC of the compound CC[C@H](C)[C@H](N)C(=O)N[C@@H](CC(N)=O)C(=O)N[C@@H](CC(C)C)C(=O)N[C@@H](CCCCN)C(=O)N[C@@H](C)C(=O)N[C@@H](CC(C)C)C(=O)N[C@@H](C)C(=O)N[C@@H](C)C(=O)N[C@@H](CC(C)C)C(=O)N[C@@H](C)C(=O)N[C@@H](CCCCN)C(=O)N[C@@H](Cc1ccc(O)cc1)C(=O)N[C@H](C(=O)N[C@@H](CC(C)C)C(N)=O)[C@@H](C)CC on PBMC.
Result: 22.3509%

Task: Identify measured Average (percentage cell inhibition), Mastoparan PBMC obtained with PBMC for CC[C@H](C)[C@H](N)C(=O)N[C@@H](CC(N)=O)C(=O)N[C@@H](CC(C)C)C(=O)N[C@@H](CCCCN)C(=O)N[C@@H](C)C(=O)N[C@@H](CC(C)C)C(=O)N[C@@H](C)C(=O)N[C@@H](C)C(=O)N[C@@H](CC(C)C)C(=O)NCC(=O)N[C@@H](CCCCN)C(=O)N[C@@H](CCCCN)C(=O)N[C@H](C(=O)N[C@@H](CC(C)C)C(N)=O)[C@@H](C)CC .
Result: 11.4267%

Task: Find the measured Average (percentage cell inhibition), Mastoparan PBMC of CC[C@H](C)[C@H](N)C(=O)N[C@@H](CC(N)=O)C(=O)N[C@@H](CC(C)C)C(=O)N[C@@H](CCCCN)C(=O)N[C@@H](C)C(=O)N[C@@H](CC(C)C)C(=O)N[C@@H](CCCCN)C(=O)N[C@@H](C)C(=O)N[C@@H](CC(C)C)C(=O)N[C@@H](C)C(=O)N[C@@H](CCCCN)C(=O)N[C@@H](CCCCN)C(=O)N[C@H](C(=O)N[C@@H](CC(C)C)C(N)=O)[C@@H](C)CC with PBMC as test system.
Result: 5.806%

Task: Specify the recorded Average (percentage cell inhibition), Mastoparan PBMC for CC[C@H](C)[C@H](N)C(=O)N[C@@H](CC(N)=O)C(=O)N[C@@H](CC(C)C)C(=O)N[C@@H](CCCCN)C(=O)N[C@@H](C)C(=O)N[C@@H](CC(C)C)C(=O)N[C@@H](C)C(=O)N[C@@H](C)C(=O)N[C@@H](CC(C)C)C(=O)N[C@@H](C)C(=O)N[C@@H](CCCCN)C(=O)N[C@@H](CCCCN)C(=O)N[C@H](C(=O)N[C@@H](C)C(N)=O)[C@@H](C)CC , system: PBMC.
Result: 6.423%

Task: For PBMC, give Average (percentage cell inhibition), Mastoparan PBMC of the listed compound: CC[C@H](C)[C@H](N)C(=O)N[C@@H](CC(N)=O)C(=O)N[C@@H](CC(C)C)C(=O)N[C@@H](CCCCN)C(=O)N[C@@H](C)C(=O)N[C@@H](CC(C)C)C(=O)N[C@@H](C)C(=O)N[C@@H](C)C(=O)N[C@@H](CC(C)C)C(=O)N[C@@H](C)C(=O)N[C@@H](CCCCN)C(=O)N[C@@H](CCCCN)C(=O)N[C@H](C(=O)N[C@@H](Cc1c[nH]c2ccccc12)C(N)=O)[C@@H](C)CC
Result: 13.9862%

Task: Fill: Average (percentage cell inhibition), Mastoparan PBMC (PBMC) for this compound CC[C@H](C)[C@H](NC(=O)[C@H](CCCCN)NC(=O)[C@H](CCCCN)NC(=O)[C@H](C)NC(=O)[C@H](CC(C)C)NC(=O)[C@H](C)NC(=O)[C@H](C)NC(=O)[C@H](CC(C)C)NC(=O)[C@H](C)NC(=O)[C@H](CCCCN)NC(=O)[C@H](CC(C)C)NC(=O)[C@H](CC(N)=O)NC(=O)[C@@H](N)CC(C)C)C(=O)N[C@@H](CC(C)C)C(N)=O
Result: 20.4049%

* * *

Below, each of the compounds is paired with its reported Average (percentage cell inhibition), Mastoparan PBMC value.
- System: PBMC
- reported conditions: 12.5 µM
Provide only the numeric value, understood in %.

item smiles | display unit | obs value
CC[C@H](C)[C@H](N)C(=O)N[C@@H](CC(N)=O)C(=O)N[C@@H](CC(C)C)C(=O)N[C@@H](CCCCN)C(=O)N[C@@H](C)C(=O)N[C@@H](CC(C)C)C(=O)N[C@@H](C)C(=O)N[C@@H](C)C(=O)N[C@@H](CC(C)C)C(=O)N[C@@H](C)C(=O)N[C@@H](CCCCN)C(=O)N[C@@H](Cc1c[nH]c2ccccc12)C(=O)N[C@H](C(=O)N[C@@H](CC(C)C)C(N)=O)[C@@H](C)CC | % | 73.0011
CC[C@H](C)[C@H](N)C(=O)N[C@@H](CC(N)=O)C(=O)N[C@@H](CC(C)C)C(=O)N[C@@H](CCCCN)C(=O)N[C@@H](C)C(=O)N[C@@H](CC(C)C)C(=O)N[C@@H](CC(N)=O)C(=O)N[C@@H](C)C(=O)N[C@@H](CC(C)C)C(=O)N[C@@H](C)C(=O)N[C@@H](CCCCN)C(=O)N[C@@H](CCCCN)C(=O)N[C@H](C(=O)N[C@@H](CC(C)C)C(N)=O)[C@@H](C)CC | % | 10.586

Query compound follows.
Task: Could you please provide reported Average (percentage cell inhibition), Mastoparan PBMC for CC[C@H](C)[C@H](N)C(=O)N[C@@H](CC(N)=O)C(=O)N[C@@H](CC(C)C)C(=O)N[C@@H](CCCCN)C(=O)N[C@@H](C)C(=O)N[C@@H](CC(C)C)C(=O)N[C@@H](C)C(=O)N[C@@H](C)C(=O)N[C@@H](CCCCN)C(=O)N[C@@H](C)C(=O)N[C@@H](CCCCN)C(=O)N[C@@H](CCCCN)C(=O)N[C@H](C(=O)N[C@@H](CC(C)C)C(N)=O)[C@@H](C)CC ? Thanks!
Result: -2.726
